Origin of measurements: patent US20230373939A1

Target: F508del in NIH 3T3 cells (Homo sapiens, UniProt P13569, DEL508-508)
Construct: expressed in transfected cells
Sequence (P13569 with tags, fused parts or gaps DEL508-508): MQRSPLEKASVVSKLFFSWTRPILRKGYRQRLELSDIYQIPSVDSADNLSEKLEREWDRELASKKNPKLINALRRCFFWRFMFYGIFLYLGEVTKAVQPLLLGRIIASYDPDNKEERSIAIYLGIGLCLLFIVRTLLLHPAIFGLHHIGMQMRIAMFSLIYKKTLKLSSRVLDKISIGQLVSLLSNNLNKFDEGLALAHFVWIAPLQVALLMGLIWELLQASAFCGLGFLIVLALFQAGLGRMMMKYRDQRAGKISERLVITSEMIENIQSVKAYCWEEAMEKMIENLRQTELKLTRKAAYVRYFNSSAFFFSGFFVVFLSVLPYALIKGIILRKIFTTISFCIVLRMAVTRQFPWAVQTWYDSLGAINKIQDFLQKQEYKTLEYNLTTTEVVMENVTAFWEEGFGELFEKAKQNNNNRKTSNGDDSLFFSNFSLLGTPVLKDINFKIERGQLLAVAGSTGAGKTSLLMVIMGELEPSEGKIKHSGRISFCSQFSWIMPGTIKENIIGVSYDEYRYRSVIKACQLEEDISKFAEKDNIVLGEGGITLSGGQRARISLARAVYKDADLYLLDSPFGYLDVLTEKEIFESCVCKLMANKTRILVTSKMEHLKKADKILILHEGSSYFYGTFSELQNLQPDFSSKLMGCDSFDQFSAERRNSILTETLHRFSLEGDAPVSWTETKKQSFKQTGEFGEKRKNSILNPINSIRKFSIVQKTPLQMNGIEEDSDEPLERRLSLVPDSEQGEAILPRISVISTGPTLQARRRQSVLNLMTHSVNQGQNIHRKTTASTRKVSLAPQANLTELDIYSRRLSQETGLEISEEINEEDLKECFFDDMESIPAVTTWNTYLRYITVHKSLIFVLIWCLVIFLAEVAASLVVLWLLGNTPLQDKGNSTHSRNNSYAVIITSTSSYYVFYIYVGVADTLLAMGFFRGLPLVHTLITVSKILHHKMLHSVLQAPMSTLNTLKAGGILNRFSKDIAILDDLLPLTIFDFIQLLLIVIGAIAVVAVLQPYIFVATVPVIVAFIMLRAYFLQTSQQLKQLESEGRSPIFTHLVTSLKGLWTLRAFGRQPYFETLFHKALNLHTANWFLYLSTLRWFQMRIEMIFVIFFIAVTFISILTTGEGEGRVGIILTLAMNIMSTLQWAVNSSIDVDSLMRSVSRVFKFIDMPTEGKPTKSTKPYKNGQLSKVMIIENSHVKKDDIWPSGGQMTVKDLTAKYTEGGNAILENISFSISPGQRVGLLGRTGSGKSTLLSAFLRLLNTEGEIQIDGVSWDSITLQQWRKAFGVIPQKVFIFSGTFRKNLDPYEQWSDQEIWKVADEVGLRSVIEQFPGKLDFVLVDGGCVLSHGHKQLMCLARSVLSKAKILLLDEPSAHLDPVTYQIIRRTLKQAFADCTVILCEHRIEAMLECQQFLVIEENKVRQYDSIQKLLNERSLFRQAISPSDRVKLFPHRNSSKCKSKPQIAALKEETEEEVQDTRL
Assay: 3T3 assay: membrane potential optical assay for F508del correction
Format: cell-based
Conditions: NIH3T3; NIH 3T3 cells, F508del; read-out: 3T3 Max Activity (%)

smiles-structure | tested-system | Emax
Cc1cccc(C)c1-c1cnc(NCc2ccccc2)c(NS(=O)(=O)c2ccccc2)n1 | F508del in NIH 3T3 cells (Homo sapiens, UniProt P13569, DEL508-508) | 30 to 60%
COc1ccccc1Nc1nc(-c2sc(NS(=O)(=O)c3ccccc3)nc2C)cs1 | F508del in NIH 3T3 cells (Homo sapiens, UniProt P13569, DEL508-508) | 30 to 60%
COc1ccccc1Cc1cnc(NS(=O)(=O)c2ccccc2)o1 | F508del in NIH 3T3 cells (Homo sapiens, UniProt P13569, DEL508-508) | < 30%
O=S(=O)(Nc1nn(-c2cccc(Cl)c2)cc1-c1ccccc1Cl)c1ccccc1 | F508del in NIH 3T3 cells (Homo sapiens, UniProt P13569, DEL508-508) | < 30%
Cc1ccc(-c2ccc(NS(=O)(=O)c3ccccc3)nc2-c2ccc(C)cc2)cc1 | F508del in NIH 3T3 cells (Homo sapiens, UniProt P13569, DEL508-508) | > 60%
Cc1cc(NS(=O)(=O)c2ccccc2)nc(-c2cccc(C)c2C)c1 | F508del in NIH 3T3 cells (Homo sapiens, UniProt P13569, DEL508-508) | > 60%
COC(=O)Cc1nc(NS(=O)(=O)c2ccccc2)sc1-c1ccccc1 | F508del in NIH 3T3 cells (Homo sapiens, UniProt P13569, DEL508-508) | 30 to 60%

---

Molecular target: F508del in NIH 3T3 cells (Homo sapiens, UniProt P13569, DEL508-508)
Construct: expressed in transfected cells
Assay: 3T3 assay: membrane potential optical assay for F508del correction
Format: cell-based
Conditions: NIH3T3; NIH 3T3 cells, F508del; read-out: 3T3 Max Activity (%)
# Emax per record follows
recorded-metric: Emax

smiles-structure | tested-system | value-observed
Nc1cccc(S(=O)(=O)Nc2nc(-c3ccccc3)c(Cc3ccccc3)s2)c1 | F508del in NIH 3T3 cells (Homo sapiens, UniProt P13569, DEL508-508) | 30 to 60%
Cc1ccccc1-c1cn(Cc2ccccc2)nc1NS(=O)(=O)c1ccccc1 | F508del in NIH 3T3 cells (Homo sapiens, UniProt P13569, DEL508-508) | < 30%
Cc1cc(C)c(-n2nc(NS(=O)(=O)c3ccccc3)cc2-c2cccc(Oc3ccccc3)c2)c(C)c1 | F508del in NIH 3T3 cells (Homo sapiens, UniProt P13569, DEL508-508) | 30 to 60%
Cc1cccc(-c2nc(NS(=O)(=O)c3ccccc3)cc(C)c2C)c1C | F508del in NIH 3T3 cells (Homo sapiens, UniProt P13569, DEL508-508) | > 60%
O=S(=O)(Nc1nn(Cc2ccccc2)cc1C1CCCCC1)c1ccccc1 | F508del in NIH 3T3 cells (Homo sapiens, UniProt P13569, DEL508-508) | < 30%
Cc1ccc(-c2cc(NS(=O)(=O)c3ccccc3)nn2-c2c(C)cc(C)cc2C)cc1 | F508del in NIH 3T3 cells (Homo sapiens, UniProt P13569, DEL508-508) | 30 to 60%
CCCNC(=O)c1sc(NS(=O)(=O)c2ccccc2)nc1-c1ccccc1 | F508del in NIH 3T3 cells (Homo sapiens, UniProt P13569, DEL508-508) | < 30%
COc1ccc(-c2cn(Cc3ccccc3)nc2NS(=O)(=O)c2ccccc2)cc1 | F508del in NIH 3T3 cells (Homo sapiens, UniProt P13569, DEL508-508) | < 30%
C/C=C/c1ccc(NS(=O)(=O)c2ccccc2)nc1-c1ccc(C)cc1 | F508del in NIH 3T3 cells (Homo sapiens, UniProt P13569, DEL508-508) | > 60%
Cc1cc(NS(=O)(=O)c2ccccc2)nc(-c2cc(C)ccc2C)c1 | F508del in NIH 3T3 cells (Homo sapiens, UniProt P13569, DEL508-508) | > 60%
COc1ccc(-c2cn(-c3cccc(Cl)c3)nc2NS(=O)(=O)c2ccccc2)cc1 | F508del in NIH 3T3 cells (Homo sapiens, UniProt P13569, DEL508-508) | < 30%
Cc1cc(C)c(-n2cc(Br)c(NS(=O)(=O)c3ccccc3)n2)c(C)c1 | F508del in NIH 3T3 cells (Homo sapiens, UniProt P13569, DEL508-508) | < 30%
O=C(O)c1sc(NS(=O)(=O)c2ccccc2)nc1-c1ccccc1 | F508del in NIH 3T3 cells (Homo sapiens, UniProt P13569, DEL508-508) | 30 to 60%
Cc1ccc(-n2nc(NS(=O)(=O)c3ccccc3)cc2C(C)(C)C)cc1 | F508del in NIH 3T3 cells (Homo sapiens, UniProt P13569, DEL508-508) | 30 to 60%
O=C(NCCOCC1CC1)c1sc(NS(=O)(=O)c2ccccc2)nc1-c1ccccc1 | F508del in NIH 3T3 cells (Homo sapiens, UniProt P13569, DEL508-508) | < 30%
CCCc1nc(NS(=O)(=O)c2ccccc2)sc1C | F508del in NIH 3T3 cells (Homo sapiens, UniProt P13569, DEL508-508) | < 30%
CCOC(=O)c1nc(NS(=O)(=O)c2ccccc2)sc1-c1ccccc1 | F508del in NIH 3T3 cells (Homo sapiens, UniProt P13569, DEL508-508) | 30 to 60%
O=S(=O)(Nc1nn(Cc2ccccc2)cc1-c1ccc(Cl)cc1)c1ccccc1 | F508del in NIH 3T3 cells (Homo sapiens, UniProt P13569, DEL508-508) | 30 to 60%
Cc1cc(C)c(-n2nc(NS(=O)(=O)c3ccccc3)cc2C(C)(C)C)c(C)c1 | F508del in NIH 3T3 cells (Homo sapiens, UniProt P13569, DEL508-508) | < 30%
Cc1cccc(C)c1-c1cnc(N2CCN(C)CC2)c(NS(=O)(=O)c2ccccc2)n1 | F508del in NIH 3T3 cells (Homo sapiens, UniProt P13569, DEL508-508) | < 30%
O=S(=O)(Nc1nc(-c2ccccc2)c(Oc2ccccc2)s1)c1ccccc1 | F508del in NIH 3T3 cells (Homo sapiens, UniProt P13569, DEL508-508) | < 30%
Cc1cc(C)c(-n2cc(C(C)C)c(NS(=O)(=O)c3ccccc3)n2)c(C)c1 | F508del in NIH 3T3 cells (Homo sapiens, UniProt P13569, DEL508-508) | < 30%
Cc1cc(C)c(-n2nc(NS(=O)(=O)c3ccccc3)cc2-c2ccccc2Oc2ccccc2)c(C)c1 | F508del in NIH 3T3 cells (Homo sapiens, UniProt P13569, DEL508-508) | > 60%
Cc1ccc(-c2cc(NS(=O)(=O)c3ccccc3)nc(-c3ccc(C)cc3)c2)cc1 | F508del in NIH 3T3 cells (Homo sapiens, UniProt P13569, DEL508-508) | > 60%
COC(=O)c1sc(NS(=O)(=O)c2ccccc2)nc1-c1ccc(C)cc1 | F508del in NIH 3T3 cells (Homo sapiens, UniProt P13569, DEL508-508) | > 60%
O=S(=O)(Nc1nn(Cc2ccccc2)cc1C1=CCCCC1)c1ccccc1 | F508del in NIH 3T3 cells (Homo sapiens, UniProt P13569, DEL508-508) | < 30%
